The following compounds are shown together with reported pIC50 values.
Target: PKC theta (Homo sapiens, UniProt Q04759)
Sequence (Q04759 whole entry): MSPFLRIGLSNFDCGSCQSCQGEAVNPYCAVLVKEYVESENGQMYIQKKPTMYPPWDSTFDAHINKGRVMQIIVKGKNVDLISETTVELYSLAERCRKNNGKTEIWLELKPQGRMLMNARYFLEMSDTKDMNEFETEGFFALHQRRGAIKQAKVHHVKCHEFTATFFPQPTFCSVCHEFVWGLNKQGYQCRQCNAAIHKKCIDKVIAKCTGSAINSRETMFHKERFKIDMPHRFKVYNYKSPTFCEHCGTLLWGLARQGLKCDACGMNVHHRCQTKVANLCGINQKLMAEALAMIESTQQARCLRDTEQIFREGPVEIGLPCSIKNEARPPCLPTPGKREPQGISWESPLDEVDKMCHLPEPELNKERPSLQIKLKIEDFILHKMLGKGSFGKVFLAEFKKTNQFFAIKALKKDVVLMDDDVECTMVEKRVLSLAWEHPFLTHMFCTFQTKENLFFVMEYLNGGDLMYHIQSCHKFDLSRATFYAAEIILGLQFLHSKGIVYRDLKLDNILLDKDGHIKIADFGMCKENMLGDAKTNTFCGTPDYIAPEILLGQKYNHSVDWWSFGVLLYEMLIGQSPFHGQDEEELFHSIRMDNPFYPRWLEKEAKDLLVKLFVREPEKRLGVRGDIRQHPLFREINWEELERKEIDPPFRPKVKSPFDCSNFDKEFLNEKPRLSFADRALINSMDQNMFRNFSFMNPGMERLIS
pIC50: −log10 of the molar value.

| smiles.record | target.desc | pIC50 |
| --- | --- | --- |
| CN1CCN(c2ccc(Nc3ncc(F)c(NC4CC(C)(C)N(C)C(C)(C)C4)n3)cc2OC(F)F)CC1 | PKC theta (Homo sapiens, UniProt Q04759) | 8.62 |
| CN1C(C)(C)CC(Nc2nc(Nc3cc(Br)cc(C(F)(F)F)c3)ncc2F)CC1(C)C | PKC theta (Homo sapiens, UniProt Q04759) | 7.16 |
| COc1cc(Nc2ncc(Br)c(NC3CC(C)(C)N(C)C(C)(C)C3)n2)cc(OC)c1 | PKC theta (Homo sapiens, UniProt Q04759) | 7.99 |
| COc1ccc(Nc2ncc(Cl)c(NC3CC(C)(C)N(C)C(C)(C)C3)n2)cc1OC(F)F | PKC theta (Homo sapiens, UniProt Q04759) | 9.26 |
| CN1C(C)(C)CC(Nc2nc(Nc3cccc(S(N)(=O)=O)c3)ncc2F)CC1(C)C | PKC theta (Homo sapiens, UniProt Q04759) | 7.15 |
| CN1C(C)(C)CC(Nc2nc(Nc3cc(C(F)(F)F)cc(C(F)(F)F)c3)ncc2F)CC1(C)C | PKC theta (Homo sapiens, UniProt Q04759) | 6.91 |
| Cc1cc(Nc2ncc(F)c(NC3CC(C)(C)N(C)C(C)(C)C3)n2)ccc1-c1ccncc1 | PKC theta (Homo sapiens, UniProt Q04759) | 7.53 |
| CCCN1CCN(c2ccc(Nc3ncc(F)c(NC4CC(C)(C)N(C)C(C)(C)C4)n3)cc2C(F)(F)F)CC1 | PKC theta (Homo sapiens, UniProt Q04759) | 7.70 |
| Cc1ccc(Nc2ncc(F)c(NC3CC(C)(C)N(C)C(C)(C)C3)n2)cc1-c1ccncc1 | PKC theta (Homo sapiens, UniProt Q04759) | 8.31 |
| CN1C(C)(C)CC(Nc2nc(Nc3ccc(-c4ccncc4)cc3)ncc2F)CC1(C)C | PKC theta (Homo sapiens, UniProt Q04759) | 7.09 |
| COc1ccc(Nc2ncc(C(F)(F)F)c(NC3CC(C)(C)N(C)C(C)(C)C3)n2)cc1OC(F)F | PKC theta (Homo sapiens, UniProt Q04759) | 8.47 |
| Cc1ccc(Nc2ncc(C#N)c(NC3CC(C)(C)NC(C)(C)C3)n2)cc1-n1cnnn1 | PKC theta (Homo sapiens, UniProt Q04759) | 9.10 |
| CN1CCC(Nc2nc(Nc3cccc(C#N)c3)ncc2F)CC1 | PKC theta (Homo sapiens, UniProt Q04759) | 6.89 |
| CN1CCC(Nc2nc(Nc3ccc(N4CCN(C)CC4)c(Cl)c3)ncc2F)CC1 | PKC theta (Homo sapiens, UniProt Q04759) | 7.49 |
| COc1cc(Nc2ncc(C(F)(F)F)c(NC3CC(C)(C)N(C)C(C)(C)C3)n2)cc(-n2cnnn2)c1 | PKC theta (Homo sapiens, UniProt Q04759) | 8.14 |
| CCN1C(=O)C(C)(C)Oc2cc(Nc3ncc(OC)c(NC4CC(C)(C)N(C)C(C)(C)C4)n3)ccc21 | PKC theta (Homo sapiens, UniProt Q04759) | 8.00 |

* * *

The following compounds are shown together with reported log10 IC50 values.
Test system: Human primary T cells
Experiment: IL-2 ELISA, Human Primary T Cell, Anti-CD3+CD28+ (Example 3)
Assay type: cell-based
Conditions: Homo sapiens, T-cell, 24 h, anti-CD3+CD28 stimulation
endpoint.name: log10 IC50 (log10 of the value in nM)

| smiles.record | log10 IC50 |
| --- | --- |
| CN1C(C)(C)CC(Nc2nc(Nc3ccc(C(F)(F)F)c(Cl)c3)ncc2F)CC1(C)C | 2.49 |
| CCOc1ccc2nc(Nc3ncc(F)c(NC4CC(C)(C)N(C)C(C)(C)C4)n3)sc2c1 | 3.33 |
| Cc1cc(NC2CC(C)(C)N(C)C(C)(C)C2)nc(Nc2ccc(N3CCN(S(C)(=O)=O)CC3)c(Cl)c2)n1 | 3.64 |
| CC(C)n1c(=O)oc2cc(Nc3ncc(C#N)c(NC4CC(C)(C)N(C)C(C)(C)C4)n3)ccc21 | 2.51 |
| Cc1ccc(Nc2ncc(F)c(NC3CC(C)(C)NC(C)(C)C3)n2)cc1-n1cnnn1 | 1.85 |
| COc1ccc(Nc2ncc(F)c(NC3CC(C)(C)N(C)C(C)(C)C3)n2)cc1C(F)(F)F | 2.23 |
| Cc1ccc(Nc2ncc(F)c(NC3CC(C)(C)N(C)C(C)(C)C3)n2)cc1-c1ccoc1 | 2.25 |
| COc1ccc(Nc2ncc(F)c(NC3CC(C)(C)N(C)C(C)(C)C3)n2)cc1Cl | 2.05 |

Where do the numbers come from? From patent US8993585B2.
